Target: Progesterone receptor (Homo sapiens, UniProt P06401)
Assay: Displacement of [1,2,6,7-3H]progesterone from recombinant human GST-tagged PR-LBD (675 to 933 residues) expressed in baculovirus-infected insect cells measured after 24 hrs by liquid scintillation counting method
What log10 IC50 was measured for each of the following?
Response schema: value (number) is log10 of IC50 in units of nM.

Exam item: Test system Progesterone receptor (Homo sapiens, UniProt P06401); read-out log10 IC50; what value for "N#Cc1ccc(-c2ccc3oc(=O)ccc3c2)n1Cc1ccccc1" ?
Marked response: 2.90

Exam item: Test system Progesterone receptor (Homo sapiens, UniProt P06401); read-out log10 IC50; what value for "CCCCCCn1c(C#N)ccc1-c1ccc2oc(=O)ccc2c1" ?
Marked response: 2.20

Exam item: Test system Progesterone receptor (Homo sapiens, UniProt P06401); read-out log10 IC50; what value for "COc1cc2oc(=O)cc(C)c2cc1-c1ccc(C#N)n1C" ?
Marked response: 3.00

Exam item: Test system Progesterone receptor (Homo sapiens, UniProt P06401); read-out log10 IC50; what value for "CCN(CC)c1cc2oc(=O)ccc2cc1-c1ccc(C#N)n1C" ?
Marked response: 3.13

Exam item: Test system Progesterone receptor (Homo sapiens, UniProt P06401); read-out log10 IC50; what value for "Cc1cc(=O)oc2cc(O)c(-c3ccc(C#N)n3C)cc12" ?
Marked response: 4.20

###

Target: UniProtKB P06401
Sequence (P06401 whole entry): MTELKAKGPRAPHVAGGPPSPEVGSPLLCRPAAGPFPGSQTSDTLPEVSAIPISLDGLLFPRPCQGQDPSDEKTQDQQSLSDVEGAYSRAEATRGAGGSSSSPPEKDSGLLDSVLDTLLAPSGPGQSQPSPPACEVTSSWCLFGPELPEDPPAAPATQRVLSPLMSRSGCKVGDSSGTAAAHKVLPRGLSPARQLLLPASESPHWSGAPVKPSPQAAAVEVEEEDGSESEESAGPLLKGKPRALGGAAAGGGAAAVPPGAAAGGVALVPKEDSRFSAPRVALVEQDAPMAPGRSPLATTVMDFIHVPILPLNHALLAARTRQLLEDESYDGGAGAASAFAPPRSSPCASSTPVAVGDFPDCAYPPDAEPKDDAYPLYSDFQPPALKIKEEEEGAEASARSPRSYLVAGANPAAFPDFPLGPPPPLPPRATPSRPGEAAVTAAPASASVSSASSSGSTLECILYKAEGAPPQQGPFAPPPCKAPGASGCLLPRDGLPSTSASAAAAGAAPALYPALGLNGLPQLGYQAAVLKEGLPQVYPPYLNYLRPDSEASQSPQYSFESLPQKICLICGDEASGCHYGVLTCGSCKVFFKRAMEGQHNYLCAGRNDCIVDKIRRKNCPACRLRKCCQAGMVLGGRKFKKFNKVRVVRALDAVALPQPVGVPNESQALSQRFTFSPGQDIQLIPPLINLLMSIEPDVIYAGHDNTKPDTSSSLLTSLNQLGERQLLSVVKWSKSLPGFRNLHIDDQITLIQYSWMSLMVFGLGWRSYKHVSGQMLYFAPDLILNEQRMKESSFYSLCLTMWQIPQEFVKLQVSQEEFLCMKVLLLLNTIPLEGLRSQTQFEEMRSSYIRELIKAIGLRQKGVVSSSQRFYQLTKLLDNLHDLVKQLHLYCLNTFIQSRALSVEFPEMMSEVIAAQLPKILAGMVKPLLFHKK
Test: Antagonist activity at PR in human T47D cells assessed as inhibition of progesterone-induced alkaline phosphatase expression after 24 hrs by alkaline phopshatase assay
Format: cell-based
pIC50: −log10 of the molar value.
Lab note: anything with pIC50 at or over 7 counts as condition met; the rest go in condition not met.

Exam item: Is the recorded value of pIC50 equal to or greater than 7 for this compound? "N#Cc1ccc(Cn2c(C#N)ccc2-c2ccc3oc(=O)ccc3c2)cc1"
Marked response: condition not met

Exam item: Is the recorded value of pIC50 equal to or greater than 7 for this compound? "N#Cc1ccc(-c2ccc3oc(=O)ccc3c2)n1CC1CCCCC1"
Marked response: condition met

Exam item: Is the recorded value of pIC50 equal to or greater than 7 for this compound? "COc1cc2oc(=O)cc(C)c2cc1-c1ccc(C#N)[nH]1"
Marked response: condition not met

Exam item: Is the recorded value of pIC50 equal to or greater than 7 for this compound? "Cc1ccc(-c2ccc3oc(=O)ccc3c2)s1"
Marked response: condition not met

###

Measured Property: pIC50
// pIC50 here means minus log10 of the molar concentration (mol/L)

Exam item: Test system Glucocorticoid receptor (Homo sapiens, UniProt P04150); read-out pIC50; what value for "CCN(CC)c1cc2oc(=O)ccc2cc1-c1ccc(C#N)n1C" ?
Marked response: 5.00

###

Target: Progesterone receptor (Homo sapiens, UniProt P06401)
Sequence (P06401 whole entry): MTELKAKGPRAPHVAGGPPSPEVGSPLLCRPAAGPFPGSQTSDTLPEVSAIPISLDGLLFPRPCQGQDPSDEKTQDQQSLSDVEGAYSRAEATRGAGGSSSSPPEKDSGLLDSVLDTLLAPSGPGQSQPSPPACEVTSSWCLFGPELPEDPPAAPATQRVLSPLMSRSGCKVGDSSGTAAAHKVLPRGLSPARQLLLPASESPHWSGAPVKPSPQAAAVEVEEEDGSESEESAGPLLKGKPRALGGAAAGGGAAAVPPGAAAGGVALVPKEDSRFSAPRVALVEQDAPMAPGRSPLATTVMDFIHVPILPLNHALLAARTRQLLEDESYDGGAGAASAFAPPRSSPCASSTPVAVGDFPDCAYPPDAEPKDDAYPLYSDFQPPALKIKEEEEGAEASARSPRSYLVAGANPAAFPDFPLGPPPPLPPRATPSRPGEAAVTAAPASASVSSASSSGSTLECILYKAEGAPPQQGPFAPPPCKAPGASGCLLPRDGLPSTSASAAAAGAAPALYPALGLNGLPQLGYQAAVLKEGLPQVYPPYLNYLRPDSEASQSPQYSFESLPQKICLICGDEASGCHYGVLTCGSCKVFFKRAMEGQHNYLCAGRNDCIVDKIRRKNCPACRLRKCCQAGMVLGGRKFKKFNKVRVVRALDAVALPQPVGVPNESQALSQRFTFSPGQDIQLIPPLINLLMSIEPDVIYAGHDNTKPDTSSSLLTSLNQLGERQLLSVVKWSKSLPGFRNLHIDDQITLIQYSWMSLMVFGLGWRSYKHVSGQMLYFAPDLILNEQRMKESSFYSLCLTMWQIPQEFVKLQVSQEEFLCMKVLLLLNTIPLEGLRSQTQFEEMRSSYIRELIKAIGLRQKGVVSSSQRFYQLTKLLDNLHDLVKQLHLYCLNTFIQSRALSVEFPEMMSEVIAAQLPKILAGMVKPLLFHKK
Test: Antagonist activity at PR in human T47D cells assessed as inhibition of progesterone-induced alkaline phosphatase expression after 24 hrs by alkaline phopshatase assay
Assay type: cell-based
Measured Property: pIC50
// pIC50 here means minus log10 of the molar concentration (mol/L)

Exam item: Test system Progesterone receptor (Homo sapiens, UniProt P06401); read-out pIC50; what value for "CCN(CC)c1cc2oc(=O)ccc2cc1-c1ccc(C#N)n1C" ?
Marked response: 6.62

Exam item: Test system Progesterone receptor (Homo sapiens, UniProt P06401); read-out pIC50; what value for "N#Cc1ccc(-c2ccc3oc(=O)ccc3c2)n1Cc1cc(F)cc(F)c1" ?
Marked response: 6.80

Exam item: Test system Progesterone receptor (Homo sapiens, UniProt P06401); read-out pIC50; what value for "Cc1ccsc1-c1ccc2oc(=O)ccc2c1" ?
Marked response: 6.82

Exam item: Test system Progesterone receptor (Homo sapiens, UniProt P06401); read-out pIC50; what value for "N#Cc1ccc(-c2ccc3oc(=O)ccc3c2)n1Cc1ccc([N+](=O)[O-])cc1" ?
Marked response: 6.35

Exam item: Test system Progesterone receptor (Homo sapiens, UniProt P06401); read-out pIC50; what value for "CCN(CC)c1cc2oc(=O)ccc2cc1-c1ccc(C#N)n1CC#N" ?
Marked response: 6.07

Exam item: Test system Progesterone receptor (Homo sapiens, UniProt P06401); read-out pIC50; what value for "CCCCCCn1c(C#N)ccc1-c1ccc2oc(=O)ccc2c1" ?
Marked response: 7.47

Exam item: Test system Progesterone receptor (Homo sapiens, UniProt P06401); read-out pIC50; what value for "Cc1cc(=O)oc2cc(O)c(-c3ccc(C#N)n3C)cc12" ?
Marked response: 6.52

Exam item: Test system Progesterone receptor (Homo sapiens, UniProt P06401); read-out pIC50; what value for "N#Cc1ccc(-c2ccc3oc(=O)ccc3c2)n1Cc1c(F)c(F)c(F)c(F)c1F" ?
Marked response: 6.72

Exam item: Test system Progesterone receptor (Homo sapiens, UniProt P06401); read-out pIC50; what value for "CCN(CC)c1cc2oc(=O)ccc2cc1-c1ccc(C#N)n1Cc1ccccc1" ?
Marked response: 6.24

Exam item: Test system Progesterone receptor (Homo sapiens, UniProt P06401); read-out pIC50; what value for "O=c1ccc2cc(-c3sccc3Cl)ccc2o1" ?
Marked response: 6.64

Exam item: Test system Progesterone receptor (Homo sapiens, UniProt P06401); read-out pIC50; what value for "N#Cc1ccc(-c2ccc3oc(=O)ccc3c2)n1Cc1ccccc1" ?
Marked response: 7.25

Exam item: Test system Progesterone receptor (Homo sapiens, UniProt P06401); read-out pIC50; what value for "COc1cc2oc(=O)cc(C)c2cc1-c1ccc(C#N)n1C" ?
Marked response: 7.62

Exam item: Test system Progesterone receptor (Homo sapiens, UniProt P06401); read-out pIC50; what value for "N#Cc1ccc(-c2ccc3oc(=O)ccc3c2)n1Cc1ccc(F)cc1" ?
Marked response: 6.68

Exam item: Test system Progesterone receptor (Homo sapiens, UniProt P06401); read-out pIC50; what value for "CCn1c(C#N)ccc1-c1cc2c(C)cc(=O)oc2cc1OC" ?
Marked response: 7.42

Exam item: Test system Progesterone receptor (Homo sapiens, UniProt P06401); read-out pIC50; what value for "N#CCn1c(C#N)ccc1-c1ccc2oc(=O)ccc2c1" ?
Marked response: 4.80

Exam item: Test system Progesterone receptor (Homo sapiens, UniProt P06401); read-out pIC50; what value for "CCn1c(C#N)ccc1-c1ccc2oc(=O)ccc2c1" ?
Marked response: 6.66

Exam item: Test system Progesterone receptor (Homo sapiens, UniProt P06401); read-out pIC50; what value for "COc1cc2oc(=O)cc(C)c2cc1-c1ccc(C#N)n1CC1CCCCC1" ?
Marked response: 6.26

Exam item: Test system Progesterone receptor (Homo sapiens, UniProt P06401); read-out pIC50; what value for "CCCCCCn1c(C#N)ccc1-c1cc2c(C)cc(=O)oc2cc1OC" ?
Marked response: 6.74

Exam item: Test system Progesterone receptor (Homo sapiens, UniProt P06401); read-out pIC50; what value for "COc1cc2oc(=O)cc(C)c2cc1-c1ccc(C#N)n1Cc1ccc(C#N)cc1" ?
Marked response: 6.32

Exam item: Test system Progesterone receptor (Homo sapiens, UniProt P06401); read-out pIC50; what value for "CCN(CC)c1cc2oc(=O)ccc2cc1-c1ccc(C#N)[nH]1" ?
Marked response: 6.92

Exam item: Test system Progesterone receptor (Homo sapiens, UniProt P06401); read-out pIC50; what value for "COc1cc2oc(=O)cc(C)c2cc1-c1ccc(C#N)n1Cc1ccc(F)cc1" ?
Marked response: 6.24

Exam item: Test system Progesterone receptor (Homo sapiens, UniProt P06401); read-out pIC50; what value for "N#Cc1ccc(-c2ccc3oc(=O)ccc3c2)n1Cc1ccc2ccccc2c1" ?
Marked response: 6.54

Exam item: Test system Progesterone receptor (Homo sapiens, UniProt P06401); read-out pIC50; what value for "CCN(CC)c1cc2oc(=O)ccc2cc1-c1ccc(C#N)n1CC" ?
Marked response: 6.60

Exam item: Test system Progesterone receptor (Homo sapiens, UniProt P06401); read-out pIC50; what value for "COc1cc2oc(=O)cc(C)c2cc1-c1ccc(C#N)n1Cc1ccccc1" ?
Marked response: 6.64

Exam item: Test system Progesterone receptor (Homo sapiens, UniProt P06401); read-out pIC50; what value for "CC(=O)c1ccc(-c2ccc3oc(=O)ccc3c2)s1" ?
Marked response: 6.62
